Give %Inh for every item shown.
Tested on: NEK1;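 note: KINOMEscan kinase panel screen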
Conditions: concentration: 1 μM, replicates: in singlicate; n = 1
Express it in %; write the number only.

Looking up COC(=O)Nc1nc2cc(Oc3ccc(NC(=O)Nc4cc(C(F)(F)F)ccc4F)cn3)ccc2[nH]1.Cl.Cl [GW681170] , I found its %Inh recorded as 0

Looking up Cc1occc1-c1ncc(OC[C@@H](N)Cc2c[nH]c3ccccc23)cc1-c1ccc2[nH]nc(C)c2c1.O=C(O)C(F)(F)F [GSK682037] , I found its %Inh recorded as 24

Looking up Cl.Cl.NCC(NCc1ccc(-c2ccnc3[nH]ccc23)s1)c1ccccc1 (stereo not shown) [GSK1321565] , I found its %Inh recorded as 0

Looking up COCCOCCOc1cc2ncc3c4ccc(C#N)cc4[nH]c3c2cc1OC , I found its %Inh recorded as 0

Looking up COc1cccc(C(=O)Nc2cccc(Oc3ccc4nc(NC(=O)C5CC5)cn4n3)c2)c1 , I found its %Inh recorded as 16

Looking up CN1CCN(Cc2cccc(-c3ccc4c(Nc5ccc(Oc6ccccc6)cc5)ccnc4c3)c2)CC1 [GW578342] , I found its %Inh recorded as 0

Looking up FC(F)(F)c1ccc(/C=C/c2cncnc2Nc2ccc3[nH]c(Cc4ccccc4)nc3c2)cc1 [GW709199] , I found its %Inh recorded as 0

Looking up Fc1ccc(-c2ncn(C3CCNCC3)c2-c2ccnc(Oc3ccc(-c4ccccc4)cc3)n2)cc1 [SB-245391] , I found its %Inh recorded as 36

Looking up O=C(O)C(F)(F)F.O=C(O)C(F)(F)F.O=c1[nH]ccc2nc(N[C@@H]3CCCNC3)nc(Nc3ccc(S(=O)(=O)N4CCOCC4)cc3)c12 [GSK2177277] , I found its %Inh recorded as 62

Looking up Cc1cccc(NC(=O)Nc2ccc(Oc3ncnc4ccn(C)c34)cc2)c1 , I found its %Inh recorded as 0

Looking up COc1cc(Nc2nccc(N3CCC(NC(=O)Nc4cccc(C(C)=O)c4)C3)n2)cc(OC)c1OC (stereo not shown) [GSK1379753] , I found its %Inh recorded as 58

Looking up Cc1ccc(C(=O)N2CC[C@@H](O)C2)cc1-n1c(C)cc(OCc2ccc(F)cc2F)c(Br)c1=O , I found its %Inh recorded as 0

Looking up COC(=O)Nc1nc2ccc(Oc3ccc(NC(=O)Nc4cc(C(F)(F)F)ccc4F)cc3)cc2n1C.Cl [GW692089] , I found its %Inh recorded as 0

Looking up c1ccc(-c2cnc3nccnn23)cc1 [AH20685] , I found its %Inh recorded as 0

Looking up CC(=O)Nc1nc2cnc(Nc3cc(NC(=O)c4cccc(C5(C#N)CC5)c4Cl)ccc3C)nc2s1 , I found its %Inh recorded as 0

Looking up Cc1cccc(Nc2nc(N[C@H]3CCNC3)ncc2C(N)=O)c1.Cl [GSK2197149] , I found its %Inh recorded as 50
